# Target desc: T1, murine GPC3-his protein (murine, UniProt Q8CFZ4 25-558, limits assumed)
# T1 construct: Bought protein; also called mouse GPC3 protein; murine GPC3 protein; not shown: His tag
# T1 sequence (Q8CFZ4 25-558 limits assumed): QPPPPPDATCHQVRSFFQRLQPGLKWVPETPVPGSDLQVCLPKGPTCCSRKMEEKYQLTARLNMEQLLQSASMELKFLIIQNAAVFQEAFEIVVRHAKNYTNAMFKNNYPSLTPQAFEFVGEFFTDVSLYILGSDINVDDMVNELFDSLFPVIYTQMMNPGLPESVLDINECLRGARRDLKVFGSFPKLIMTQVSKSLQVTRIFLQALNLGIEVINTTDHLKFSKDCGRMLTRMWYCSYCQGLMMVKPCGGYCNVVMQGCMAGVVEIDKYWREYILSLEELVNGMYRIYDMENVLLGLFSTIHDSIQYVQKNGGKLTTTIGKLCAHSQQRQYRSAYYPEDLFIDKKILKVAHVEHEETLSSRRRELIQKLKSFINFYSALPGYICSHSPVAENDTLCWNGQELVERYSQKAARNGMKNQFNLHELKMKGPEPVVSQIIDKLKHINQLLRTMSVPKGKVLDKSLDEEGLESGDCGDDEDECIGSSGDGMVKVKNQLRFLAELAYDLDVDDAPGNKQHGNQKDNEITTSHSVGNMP
# Procedure text: ELISA, murine GPC3-his coated; antibody 0.11 nM
Reported OD450 nm is given for each of the following binders.
Measured property: OD450 nm

• hAb001H1aL1b (antibody, human IgG1, V domains shown, Humanized F2.169.2, H1a+L1b) VH: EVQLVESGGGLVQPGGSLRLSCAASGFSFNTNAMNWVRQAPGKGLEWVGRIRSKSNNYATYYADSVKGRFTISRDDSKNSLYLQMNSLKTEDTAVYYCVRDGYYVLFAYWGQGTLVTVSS VL: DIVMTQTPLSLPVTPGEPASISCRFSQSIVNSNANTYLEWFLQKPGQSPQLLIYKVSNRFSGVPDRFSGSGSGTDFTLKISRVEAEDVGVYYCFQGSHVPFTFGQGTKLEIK = 2.05
• hAb001H1L1a (antibody, human IgG1, V domains shown, Humanized F2.169.2, H1+L1a) VH: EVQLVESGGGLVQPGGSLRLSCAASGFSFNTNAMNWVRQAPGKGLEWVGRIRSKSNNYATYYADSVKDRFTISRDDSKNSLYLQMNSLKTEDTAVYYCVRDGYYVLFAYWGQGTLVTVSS VL: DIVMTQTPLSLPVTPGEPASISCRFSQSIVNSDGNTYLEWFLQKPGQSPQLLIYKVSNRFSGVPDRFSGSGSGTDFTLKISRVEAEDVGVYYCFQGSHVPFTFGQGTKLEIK = 1.66
• hAb001H2L1 (antibody, human IgG1, V domains shown, Humanized F2.169.2, H2+L1) VH: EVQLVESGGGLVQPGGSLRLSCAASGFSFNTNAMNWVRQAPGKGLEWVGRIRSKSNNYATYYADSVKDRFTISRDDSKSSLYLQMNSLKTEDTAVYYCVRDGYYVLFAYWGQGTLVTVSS VL: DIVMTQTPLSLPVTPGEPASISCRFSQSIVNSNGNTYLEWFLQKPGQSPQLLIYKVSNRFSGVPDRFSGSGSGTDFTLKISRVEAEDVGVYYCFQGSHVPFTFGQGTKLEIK = 2.1
